Data credit: patent US5495032A

- System: S. aureus ROSE (MP)
- assay.info: MIC, agar dilution method
- Format: cell-based
- run.parameters: Staphylococcus aureus, 18 h, 18 hours at 35° C.
Structures can show the parent of a compound that is named as a salt.
endpoint.name: MIC (µg/mL)
Supply the numeric figure in µg/mL, leaving out any unit text.

// recorded MIC for CCCNCC(=O)Nc1c(Cl)cc2c(c1O)C(=O)C1=C(O)[C@]3(O)C(=O)C(C(N)=O)=C(O)[C@@H](N(C)C)C3CC1C2 (some centres unmarked) [F, dihydrochloride] : 16

Quick note, MIC for CN(C)CC(=O)Nc1c(O)c2c(c(N(C)C)c1Cl)CC1CC3[C@H](N(C)C)C(O)=C(C(N)=O)C(=O)[C@@]3(O)C(O)=C1C2=O (some centres unmarked) [B] landed at 8

Entry under test: CN(C)[C@@H]1C(O)=C(C(N)=O)C(=O)[C@@]2(O)C(O)=C3C(=O)c4c(cc(Cl)c(NC(=O)CN5CCCC5)c4O)CC3CC12 (some centres unmarked) [E, dihydrochloride] . Its MIC was 8

// recorded MIC for CCCCCNCC(=O)Nc1c(Cl)cc2c(c1O)C(=O)C1=C(O)[C@]3(O)C(=O)C(C(N)=O)=C(O)[C@@H](N(C)C)C3CC1C2 (some centres unmarked) [H, dihydrochloride] : 8

* * *

// reported MIC per item
- System: E. coli PRP1 Tet A
- assay.info: microbe, parasite or virus in culture
- Assay type: cell-based
- run.parameters: Escherichia coli, PRP1TETA, 18 h, 18 hours at 35° C.
Where a name gives a salt, the structure may show the parent alone.
All answers are understood in µg/mL, so give the number only.

Known results for compounds:
CN(C)CC(=O)Nc1c(O)c2c(c(N(C)C)c1Cl)CC1CC3[C@H](N(C)C)C(O)=C(C(N)=O)C(=O)[C@@]3(O)C(O)=C1C2=O (stereo partly drawn) = 16
CN(C)[C@@H]1C(O)=C(C(N)=O)C(=O)[C@@]2(O)C(O)=C3C(=O)c4c(O)cccc4[C@@](C)(O)[C@H]3C[C@@H]12 = 32
CCCNCC(=O)Nc1c(Cl)cc2c(c1O)C(=O)C1=C(O)[C@]3(O)C(=O)C(C(N)=O)=C(O)[C@@H](N(C)C)C3CC1C2 (stereo partly drawn) [F, dihydrochloride] = 4

MIC for CN(C)CC(=O)Nc1c(Cl)cc2c(c1O)C(=O)C1=C(O)[C@]3(O)C(=O)C(C(N)=O)=C(O)[C@@H](N(C)C)C3CC1C2 (stereo partly drawn) is 4

Form field MIC, entry CNCC(=O)Nc1c(Cl)cc2c(c1O)C(=O)C1=C(O)[C@]3(O)C(=O)C(C(N)=O)=C(O)[C@@H](N(C)C)C3CC1C2 (stereo partly drawn) [I, dihydrochloride] : 16

* * *

- Test system: X. maltophilia NEMC 87210
- assay.info: MIC, agar dilution method
- Format: cell-based
- run.parameters: Stenotrophomonas maltophilia, NEMC87210, 18 hours at 35° C., read-out: MIC
Counter-ions that a name gives are not always drawn.
Consider the following compounds and their measured MIC readings.
Form entry: value (µg/mL) — number only.

Example entries and their recorded answers appear below.
CN(C)[C@@H]1C(O)=C(C(N)=O)C(=O)[C@@]2(O)C(O)=C3C(=O)c4c(cc(Cl)c(NC(=O)CCl)c4O)CC3CC12 (stereo partly shown) [K, hydrochloride] = 8
CCCNCC(=O)Nc1c(Cl)cc2c(c1O)C(=O)C1=C(O)[C@]3(O)C(=O)C(C(N)=O)=C(O)[C@@H](N(C)C)C3CC1C2 (stereo partly shown) [F, dihydrochloride] = 2
CN(C)CC(=O)Nc1c(Cl)cc2c(c1O)C(=O)C1=C(O)[C@]3(O)C(=O)C(C(N)=O)=C(O)[C@@H](N(C)C)C3CC1C2 (stereo partly shown) = 0.05

Next, consider the following compound.
Record CN(C)CC(=O)Nc1c(O)c2c(c(N(C)C)c1Cl)CC1CC3[C@H](N(C)C)C(O)=C(C(N)=O)C(=O)[C@@]3(O)C(O)=C1C2=O (stereo partly shown) . Reported MIC: 0.5

* * *

- Test system: S. aureus ATCC 29213
- assay.info: MIC, agar dilution method
- Type: cell-based
- run.parameters: Staphylococcus aureus, ATCC29213, 18 h, 18 hours at 35° C.
Structures can show the parent of a compound that is named as a salt.
# reported MIC; entries follow
Reply numerically in µg/mL, unit not repeated.

Some entries whose results are on file:
CN(C)[C@@H]1C(O)=C(C(N)=O)C(=O)[C@@]2(O)C(O)=C3C(=O)c4c(cc(Cl)c(NC(=O)CN5CCCC5)c4O)CC3CC12 (some centres unmarked) [E, dihydrochloride] = 0.25
CCCNCC(=O)Nc1c(Cl)cc2c(c1O)C(=O)C1=C(O)[C@]3(O)C(=O)C(C(N)=O)=C(O)[C@@H](N(C)C)C3CC1C2 (some centres unmarked) [F, dihydrochloride] = 0.25
CCCCCNCC(=O)Nc1c(Cl)cc2c(c1O)C(=O)C1=C(O)[C@]3(O)C(=O)C(C(N)=O)=C(O)[C@@H](N(C)C)C3CC1C2 (some centres unmarked) [H, dihydrochloride] = 0.5
CNCC(=O)Nc1c(Cl)cc2c(c1O)C(=O)C1=C(O)[C@]3(O)C(=O)C(C(N)=O)=C(O)[C@@H](N(C)C)C3CC1C2 (some centres unmarked) [I, dihydrochloride] = 0.5

// MIC lookup, molecule = CN(C)CC(=O)Nc1c(O)c2c(c(N(C)C)c1Cl)CC1CC3[C@H](N(C)C)C(O)=C(C(N)=O)C(=O)[C@@]3(O)C(O)=C1C2=O (some centres unmarked) [B] , result: 0.25

* * *

- System: Ps. acruginosa ATCC 27853
- assay.info: MIC, agar dilution method
- Type: cell-based
- run.parameters: Ps. acruginosa ATCC 27853; 18 hours at 35° C.; read-out: MIC
Counter-ions that a name gives are not always drawn.
Each record here notes measured MIC.

For orientation, consider the following solved cases.
CN(C)[C@@H]1C(O)=C(C(N)=O)C(=O)[C@@]2(O)C(O)=C3C(=O)c4c(cc(Cl)c(NC(=O)CCl)c4O)CC3CC12 (stereo partly shown) [K, hydrochloride] = > 32 µg/mL
CCCCCNCC(=O)Nc1c(Cl)cc2c(c1O)C(=O)C1=C(O)[C@]3(O)C(=O)C(C(N)=O)=C(O)[C@@H](N(C)C)C3CC1C2 (stereo partly shown) [H, dihydrochloride] = > 32 µg/mL
CCCNCC(=O)Nc1c(Cl)cc2c(c1O)C(=O)C1=C(O)[C@]3(O)C(=O)C(C(N)=O)=C(O)[C@@H](N(C)C)C3CC1C2 (stereo partly shown) [F, dihydrochloride] = 32 µg/mL
CN(C)CC(=O)Nc1c(Cl)cc2c(c1O)C(=O)C1=C(O)[C@]3(O)C(=O)C(C(N)=O)=C(O)[C@@H](N(C)C)C3CC1C2 (stereo partly shown) [A] = > 32 µg/mL

Briefly, MIC measured for CN(C)CC(=O)Nc1c(O)c2c(c(N(C)C)c1Cl)CC1CC3[C@H](N(C)C)C(O)=C(C(N)=O)C(=O)[C@@]3(O)C(O)=C1C2=O (stereo partly shown) : > 32 µg/mL

CN(C)[C@@H]1C(O)=C(C(N)=O)C(=O)[C@@]2(O)C(O)=C3C(=O)c4c(cc(Cl)c(NC(=O)CN5CCCC5)c4O)CC3CC12 (stereo partly shown) [E, dihydrochloride] has a reported MIC of 32 µg/mL

// field: MIC; key: CN(C)CC(=O)Nc1c(Cl)cc2c(c1O)C(=O)C1=C(O)[C@]3(O)C(=O)C(C(N)=O)=C(O)[C@@H](N(C)C)C3CC1C2 (stereo partly shown) [C] ; value = > 32 µg/mL

* * *

Recorded measurements of MIC, one per entry
- Tested on: S. mariescens FPOR 8733
- assay.info: MIC, agar dilution method
- Assay type: cell-based
- run.parameters: 18 h, 18 hours at 35° C.
Counter-ions that a name gives are not always drawn.
Give a bare numeral; the unit µg/mL is implied.

Quick note, MIC for CNCC(=O)Nc1c(Cl)cc2c(c1O)C(=O)C1=C(O)[C@]3(O)C(=O)C(C(N)=O)=C(O)[C@@H](N(C)C)C3CC1C2 (some centres unmarked) [I, dihydrochloride] landed at 16

Noted for CCCCNCC(=O)Nc1c(Cl)cc2c(c1O)C(=O)C1=C(O)[C@]3(O)C(=O)C(C(N)=O)=C(O)[C@@H](N(C)C)C3CC1C2 (some centres unmarked) [D, dihydrochloride] : its MIC reads 16

* * *

compounds and their reported MIC
- System: E. coli J2175
- assay.info: MIC, agar dilution method
- Assay type: cell-based
- run.parameters: Escherichia coli, 18 hours at 35° C., read-out: MIC
Counter-ions that a name gives are not always drawn.
Please respond with the number in µg/mL and leave the unit unwritten.

Here are 4 compounds together with their reported answers.
CN(C)[C@@H]1C(O)=C(C(N)=O)C(=O)[C@@]2(O)C(O)=C3C(=O)c4c(cc(Cl)c(NC(=O)CN5CCCC5)c4O)CC3CC12 (stereo partly drawn) [E, dihydrochloride] = 1
CN(C)[C@@H]1C(O)=C(C(N)=O)C(=O)[C@@]2(O)C(O)=C3C(=O)c4c(O)cccc4[C@@](C)(O)[C@H]3C[C@@H]12 = 2
CNCC(=O)Nc1c(Cl)cc2c(c1O)C(=O)C1=C(O)[C@]3(O)C(=O)C(C(N)=O)=C(O)[C@@H](N(C)C)C3CC1C2 (stereo partly drawn) [I, dihydrochloride] = 1
CCCNCC(=O)Nc1c(Cl)cc2c(c1O)C(=O)C1=C(O)[C@]3(O)C(=O)C(C(N)=O)=C(O)[C@@H](N(C)C)C3CC1C2 (stereo partly drawn) [F, dihydrochloride] = 1

For the next question, use this compound.
MIC reported for this compound CCCCCNCC(=O)Nc1c(Cl)cc2c(c1O)C(=O)C1=C(O)[C@]3(O)C(=O)C(C(N)=O)=C(O)[C@@H](N(C)C)C3CC1C2 (stereo partly drawn) [H, dihydrochloride] : 2
